- System: 388556-164-R-J1-PDC complex spheroid viability
- Experimental Protocol: Anticancer human tumor 388556-164-R-J1-PDC patient-derived colon adenocarcinoma cell line growth inhibition [RAS]
- Test Settings: second compound 0.316 µM; first compound 0.0316 µM; active compounds read low
- From the text: RAS pathway inhibitors in Combinations in Complex Spheroids A high-throughput screen of multi-cell type tumor spheroids was designed to identify active combinations of RAS pathway inhibitors and targeted small molecules. Complex spheroids include a stromal component modeled by human endothelial cells (HUVEC) and fibroblasts modeled by human mesenchymal stem cells (MSCs). […] Compounds. […] If the clinical Cmax for an agent had not been determined, the highest concentration tested was 10 microM. […]
Lab note: anything with viability, T/C below 70% is marked class 1; values at 70% or higher are marked class 0.

A selection of reference data follows.
* CC(C)n1nc(-c2ccc3oc(N)nc3c2)c2c(N)ncnc21 + C#Cc1c(F)ccc2cc(O)cc(-c3ncc4c(N5CC6CCC(C5)N6)nc(OCC56CCCN5CC(F)C6)nc4c3F)c12 | class 1
* CCN1CCN(Cc2ccc(Nc3ncc(F)c(-c4cc(F)c5nc(C)n(C(C)C)c5c4)n3)nc2)CC1 + C=CC(=O)N1CCN(c2nc(OCC3CCCN3C)nc3c(F)c(-c4nc(N)cc(C)c4C(F)(F)F)c(Cl)cc23)C(C)C1 | class 0
* CC(C)NCC(C(=O)N1CCN(c2ncnc3c2C(C)CC3O)CC1)c1ccc(Cl)cc1 (stereo not given) + C#Cc1c(F)ccc2cc(O)cc(-c3ncc4c(N5CC6CCC(C5)N6)nc(OCC56CCCN5CC(F)C6)nc4c3F)c12 | class 0

Here is another molecule to look at.
Determine whether this molecule shows viability, T/C lower than 70% (ties excluded): CC(=O)OC12COC1CC(O)C1(C)C(=O)C(O)C3=C(C)C(OC(=O)C(O)C(NC(=O)OC(C)(C)C)c4ccccc4)CC(O)(C(OC(=O)c4ccccc4)C21)C3(C)C (stereo not given) + C=CC(=O)N1CCN(c2nc(OCC3CCCN3C)nc3c(F)c(-c4nc(N)cc(C)c4C(F)(F)F)c(Cl)cc23)C(C)C1
class 0

====

viability, T/C: recorded values
- System: 388556-164-R-J1-PDC complex spheroid viability
- Experimental Protocol: Anticancer human tumor 388556-164-R-J1-PDC cell line growth inhibition [RAS];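 note: spheroids exposed to compound for 7 days before readout; 100% = DMSO vehicle control luminescence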
- Test Settings: second compound 0.003 µM; first compound 0.00316 µM; active compounds read low
Just the number in %, nothing appended.

These recorded examples may help you get a feel for the data.
* Nc1ccn(C2OC(CO)C(O)C2(F)F)c(=O)n1 (centres undefined) + CCn1c(-c2cccnc2C(C)OC)c2c3cc(ccc31)N1CCOC(CC(NC(=O)C(C(C)C)N(C)C(=O)C3(F)CCN(C(=O)C#CC(C)(C)N(C)C)CC3)C(=O)N3CCCC(N3)C(=O)OCC(C)(C)C2)C1 | 102
* O=C(c1ccc(F)c(F)c1Nc1ccc(I)cc1F)N1CC(O)([C@@H]2CCCCN2)C1 + CCn1c(-c2cccnc2C(C)OC)c2c3cc(ccc31)N1CCOC(CC(NC(=O)C(C(C)C)N(C)C(=O)C3(F)CCN(C(=O)C#CC(C)(C)N(C)C)CC3)C(=O)N3CCCC(N3)C(=O)OCC(C)(C)C2)C1 | 104

Requested read-out viability, T/C, target or system 388556-164-R-J1-PDC complex spheroid viability, entry CCN1CCN(Cc2ccc(Nc3ncc(F)c(-c4cc(F)c5nc(C)n(C(C)C)c5c4)n3)nc2)CC1 + CCn1c(-c2cc(N3CCN(C)CC3)cnc2C(C)OC)c2c3cc(ccc31)-c1csc(n1)CC(NC(=O)C1CC1C)C(=O)N1CCCC(N1)C(=O)OCC(C)(C)C2
96

Observed viability, T/C on 388556-164-R-J1-PDC complex spheroid viability for C=CC(=O)Nc1cc(Nc2nccc(-c3cn(C)c4ccccc34)n2)c(OC)cc1N(C)CCN(C)C + CCn1c(-c2cccnc2C(C)OC)c2c3cc(ccc31)N1CCOC(CC(NC(=O)C(C(C)C)N(C)C(=O)C3(F)CCN(C(=O)C#CC(C)(C)N(C)C)CC3)C(=O)N3CCCC(N3)C(=O)OCC(C)(C)C2)C1 , please.
108
